Test system: CSNK1G3;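 further: KINOMEscan kinase panel screen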
Details: concentration: 1 μM, replicates: in singlicate; n = 1
parameter.measured: %Inh (%)
Give your result in % as a bare value.

// worked examples, %Inh included
>  <compound>
Cc1nnc(-c2ccc3ncc(-c4ccc(S(C)=O)cc4)n3c2)o1 (centres unmarked)

>  <%Inh / %>
0

$$$$
>  <compound>
Cl.Nc1ncnc2occ(-c3ccc(NC(=O)Nc4cc(C(F)(F)F)ccc4F)cc3)c12

>  <%Inh / %>
32

$$$$
>  <compound>
O=C(Nc1n[nH]c2cc(-c3cccc(F)c3)ccc12)C1CC1

>  <%Inh / %>
0

$$$$
>  <compound>
NS(=O)(=O)CCc1cccc(Nc2nccc(-c3c(-c4cccc(NC(=O)c5c(F)cccc5F)c4)nn4ccccc34)n2)c1

>  <%Inh / %>
19

$$$$
>  <compound>
COc1cc2c(cc1OCCN1CCN(C)CC1)ncc1c3ccc(C#N)cc3[nH]c21

>  <%Inh / %>
0

$$$$

q: Can you look up %Inh on CSNK1G3 for O=C1Cc2cc(Nc3nc(NCc4cccc(S(=O)(=O)C(F)(F)F)c4)ncc3C(F)(F)F)ccc2N1 ?
a: 0

q: # repeat for O=C(c1ccc(-c2cc(-c3c[nH]nc3-c3ccccn3)ccn2)cc1)N1CCOCC1
a: 0

q: # repeat for COCCNC(=O)c1ccc(-c2cc(C(=O)NC3CC3)cc(F)c2C)cc1
a: 8

The values you see were collected from paper PMC5540273.
